testedOn: Mitogen-activated protein kinase kinase kinase 14 (Homo sapiens, UniProt Q99558)
Sequence (Q99558 whole entry): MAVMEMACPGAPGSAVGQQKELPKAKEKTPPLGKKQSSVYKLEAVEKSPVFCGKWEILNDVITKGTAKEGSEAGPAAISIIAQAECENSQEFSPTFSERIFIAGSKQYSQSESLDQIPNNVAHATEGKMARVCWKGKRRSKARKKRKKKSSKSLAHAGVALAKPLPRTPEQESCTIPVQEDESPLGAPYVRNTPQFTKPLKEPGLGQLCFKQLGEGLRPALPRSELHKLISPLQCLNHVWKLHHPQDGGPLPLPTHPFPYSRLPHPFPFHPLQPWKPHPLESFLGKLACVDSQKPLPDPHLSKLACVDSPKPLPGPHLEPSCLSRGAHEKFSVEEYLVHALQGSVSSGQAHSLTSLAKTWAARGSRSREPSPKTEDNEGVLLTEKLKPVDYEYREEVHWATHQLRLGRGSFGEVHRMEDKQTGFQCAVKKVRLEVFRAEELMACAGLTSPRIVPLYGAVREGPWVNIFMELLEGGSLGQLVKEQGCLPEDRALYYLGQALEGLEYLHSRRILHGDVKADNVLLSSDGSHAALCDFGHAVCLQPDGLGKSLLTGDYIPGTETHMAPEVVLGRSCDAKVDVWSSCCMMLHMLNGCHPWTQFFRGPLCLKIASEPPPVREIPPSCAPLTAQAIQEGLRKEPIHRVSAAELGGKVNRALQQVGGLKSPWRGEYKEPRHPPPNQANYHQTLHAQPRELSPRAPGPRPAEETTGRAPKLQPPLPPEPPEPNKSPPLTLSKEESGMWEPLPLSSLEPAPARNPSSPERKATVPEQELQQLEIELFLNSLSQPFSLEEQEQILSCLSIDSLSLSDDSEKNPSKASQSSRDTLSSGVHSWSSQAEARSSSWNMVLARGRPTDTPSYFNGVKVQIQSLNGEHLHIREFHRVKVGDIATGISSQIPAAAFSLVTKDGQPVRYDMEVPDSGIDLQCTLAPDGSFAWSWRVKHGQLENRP
assayName: Inhibition of Auto-Phosphorylation of Recombinant Human NF-kappaB-Inducing Kinase (NIK1/AP3K14) Activity: NIK/MAP3K14 auto-phosphorylation activity was measured using the AlphaScreen® (αscreen) format (Perkin Elmer). All compounds tested were dissolved in dimethyl sulfoxide (DMSO) and further dilutions were made in assay buffer. Final DMSO concentration was […] in assays. Assay buffer was 50 mM Tris pH 7.5 containing 1 mM EGTA (ethylene glycol tetraacetic acid), 1 mM DTT (dithiothreitol), 0.1 mM Na3VO4, 5 mM MgCl2, 0.01% Tween® 20. Assays were carried out in 384 well Alphaplates (Perkin Elmer). Incubations consisted of compound, 25 microM Adenosine-5′-triphosphate (ATP), and 0.2 nM NIK/MAP3K14. Incubations were initiated by addition of GST-tagged NIK/MAP3K14 enzyme, carried out for 1 h at 25° C. and terminated by addition of stop buffer containing anti-phospho-[…] Ser176/180 antibody. Protein A Acceptor and Glutathione-Donor beads were added before reading using an EnVision® Multilabel Plate Reader (Perkin Elmer). Signal obtained in the wells containing blank samples was subtracted from all other wells and IC50's were determined by fitting a sigmoidal curve to % inhibition of control versus Log10 compound concentration.
parameterMeasured: pIC50
# reply with the number alone; pIC50 is -log10 of concentration in mol/L

Worked examples follow.
>  <smilesData>
CN1CCc2ncc(Nc3ncc(F)c(-c4cc(C#N)c5c(c4)[C@@](C)(CO)CN5)n3)cc2C1

>  <pIC50>
8.38

$$$$
>  <smilesData>
CC1(C)CNc2c(C#N)cc(-c3ccnc(Nc4cc(Cl)cc5[nH]ccc45)n3)cc21

>  <pIC50>
6.83

$$$$

Moving on to the next molecule.
Ask | Could you tell me which pIC50 is on file for COc1nc2c(cc1Nc1nccc(-c3cc(C#N)c4c(c3)[C@@](C)(CO)CN4)n1)CCN(C)C2 ?
Reply | 8.74

These data points were gathered from ChEMBL document CHEMBL5728847.
